molecular target: HepII (Heptosyltransferase II) (Escherichia coli, UniProt P37692)
Sequence (P37692 whole entry): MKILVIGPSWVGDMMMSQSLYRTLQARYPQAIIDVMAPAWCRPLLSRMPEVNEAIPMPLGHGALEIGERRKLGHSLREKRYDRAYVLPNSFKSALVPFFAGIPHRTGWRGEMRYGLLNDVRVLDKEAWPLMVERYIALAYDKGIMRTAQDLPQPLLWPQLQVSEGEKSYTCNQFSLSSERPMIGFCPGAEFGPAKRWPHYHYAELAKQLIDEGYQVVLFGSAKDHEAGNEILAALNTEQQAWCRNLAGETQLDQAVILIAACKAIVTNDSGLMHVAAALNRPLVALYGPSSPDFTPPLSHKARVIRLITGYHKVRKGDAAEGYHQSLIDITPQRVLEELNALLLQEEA
PROPERTY_MEASURED: pKd
Just the number, please; pKd means minus log10 of the concentration in mol/L.

[in] May I ask what pKd has been recorded for Nc1ncnc2c1ncn2[C@@H]1O[C@H](COP(=O)(O)OP(=O)(O)O[C@@H]2O[C@H]([C@@H](O)CO)[C@@H](O)[C@H](O)[C@@H]2O)[C@@H](O)[C@H]1O ?
[out] 6.18
